Reference source for all entries: patent US9120749B2

measured on: MELK (Homo sapiens)
assay details: Kinase assay: MELK activity, phosphorylation of FITC-labeled histone H3 peptide measured by IMAP fluorescence polarization
Type: biochemical
condition description: 50 micro-M ATP, FITC-labeled histone H3 peptide substrate, IMAP fluorescence polarization; read-out: IC50 (μM) (kinase assay)
Would you kindly list IC50 for each of these compounds?
One number for each entry, in µM.

Solved cases below.
>>> df
                                   compound  readout_kind  units_text  reported_result
0  CN(C)Cc1ccc(-c2c(C(=O)C3CC3)cnc3ccc(-c4cc(Cl)c(O)c(Cl)c4)cc23)cc1 [Example 431]          IC50          µM           0.0039
1  COc1cc(-c2ccc3ncc(C(=O)C4CC4)c(N[C@H]4CC[C@H](CN(C)C)CC4)c3c2)cc(Cl)c1O [Example 316]          IC50          µM            0.011
2  N[C@H]1CC[C@@H](Nc2c(C(=O)C3CC3)cnc3ccc(-c4cc(F)c(O)c(F)c4)cc23)CC1 [Example 180]          IC50          µM           0.0026
3  CN(C)C[C@H]1CC[C@H](Nc2c(S(C)(=O)=O)cnc3ccc(-c4cc(F)c(O)c(Cl)c4)cc23)CC1 [Example 423]          IC50          µM           0.0063

For each entry beneath this line, provide reported IC50.
1. CN(C)[C@H]1CC[C@H](CNc2c(C(=O)C3CC3)cnc3ccc(-c4cc(F)c(O)c(Cl)c4)cc23)CC1 [Example 327]
2. COc1cc(-c2ccc3ncc(C(=O)C4CC4)c(N4CCC(N5CCN(C)CC5)CC4)c3c2)cc(Cl)c1O [Example 351]
3. CN(C)CC(=O)N1CCN(c2c(C(=O)C3CC3)cnc3ccc(-c4cc(F)c(O)c(Cl)c4)cc23)CC1 [Example 442]
4. O=C(c1cnc2ccc(-c3ccc(O)c(OC(F)(F)F)c3)cc2c1N1CCC(CN2CCCC2)CC1)C1CC1 [Example 313]
5. COc1cc(-c2ccc3ncc(C(=O)C4CC4)c(N4CCC(C(C)N(C)C)CC4)c3c2)ccc1O (centres unmarked) [Example 187]
6. O=C(c1cnc2ccc(-c3cc(F)c(O)c(Cl)c3)cc2c1N1CCC(CN2CCCC2)CC1)C1CC1 [Example 283]
7. CCN(CC)C1CCC(Nc2c(C(=O)C3CC3)cnc3ccc(-c4cc(Cl)c(O)c(OC)c4)cc23)CC1 (centres unmarked) [Example 185(a)]

[out]
0.0055
0.0022
0.0035
0.012
0.0034
0.0029
0.0026

Quick batch: IC50 for everything below.
1. CN1CCC(CNc2c(C(=O)C3CC3)cnc3ccc(-c4cc(F)c(O)c(Cl)c4)cc23)CC1 [Example 270]
2. CC(=O)c1cnc2ccc(-c3cnc(C#N)nc3)cc2c1N[C@H]1CC[C@H](CN(C)C)CC1 [Example 418]

[out]
1. 0.021
2. 0.0073

Please state, for each entry, its recorded IC50.
1. N[C@H]1CC[C@H](Nc2c(C(=O)C3CC3)cnc3ccc(-c4ccc5[nH]cnc5c4)cc23)CC1 [Example 116]
2. COc1cc(-c2ccc3ncc(S(C)(=O)=O)c(N4CCC(CN5CCCC5)CC4)c3c2)cc(Cl)c1O [Example 412]
3. CN(C)C[C@H]1CC[C@H](Nc2c(C(=O)C3CC3)cnc3ccc(-c4cnc(C#N)nc4)cc23)CC1 [Example 426]
4. COc1cc(-c2ccc3ncc(C(=O)C4CC4)c(N[C@H]4CC[C@H](N)CC4)c3c2)ccc1O [Example 81]
5. O=C(c1cnc2ccc(-c3cc(F)c(O)c(Cl)c3)cc2c1Nc1ccc(N2CCNCC2)nc1)C1CC1 [Example 425]
6. CN(C)[C@H]1CC[C@H](Nc2c(C(=O)C3CC3)cnc3cc(F)c(-c4cc(F)c(O)c(Cl)c4)cc23)CC1 [Example 295]
7. N[C@H]1CC[C@H](Nc2c(C(=O)C3CC3)cnc3ccc(-c4cc(F)c(O)c(F)c4)cc23)CC1 [Example 156]
8. COc1cc(-c2ccc3ncc(C(=O)C4CC4)c(NCC4CCN(C)CC4)c3c2)cc(Cl)c1O [Example 201]

[out]
0.018
0.002
0.0025
0.007
0.0027
0.027
0.023
0.0034

Below are 5 compounds. Give each one its IC50.
1. CN(C)Cc1ccc(Nc2c(C(=O)C3CC3)cnc3ccc(-c4cc(Cl)c(O)c(Cl)c4)cc23)nc1 [Example 417]
2. COc1cc(-c2ccc3ncc(C(=O)C4CC4)c(Nc4ccc(CN5CCN(C)CC5)cc4)c3c2)cc(Cl)c1O [Example 398]
3. CC(=O)c1cnc2ccc(-c3cnc(C#N)nc3)cc2c1Nc1ccc(CN2CCCC2)cc1 [Example 413]
4. CN1CCN(Cc2ccc(Nc3c(C(=O)C4CC4)cnc4ccc(-c5cc(Cl)c(O)c(Cl)c5)cc34)cc2)CC1 [Example 397]
5. O=C(c1cnc2ccc(-c3ccc(O)c(Cl)c3)cc2c1NCCN1CCNCC1)C1CC1 [Example 215]

[out]
0.0099
0.0084
0.0029
0.0076
0.017

Required: IC50, one value per compound below.
1. CN(C)[C@H]1CC[C@H](Nc2c(C(=O)C3CC3)cnc3ccc(-c4cc(Cl)c(O)c(Cl)c4)cc23)CC1 [Example 263]
2. N#Cc1ncc(-c2ccc3ncc(C(=O)C4CC4)c(N[C@H]4CC[C@H](N)CC4)c3c2)cn1 [Example 96]
3. CN(C)Cc1ccc(Nc2c(C(=O)C3CCCC3)cnc3ccc(-c4ccc(O)c(Cl)c4)cc23)cc1 [Example 387]

[out]
[0.0017, 0.0024, 0.089]

----------
Tested on: HT-1197 cells
assay details: Cell-based assay: anti-proliferative activity, Cell Counting Kit-8, 72 hours (HT-1197, negative control without MELK expression)
condition description: Homo sapiens, HT1197, 72 h, HT1197 cells (negative control), 72 hours
Counter-ions that a name gives are not always drawn.
Could you please report measured IC50 for the items listed next?
Give bare numbers, in µM.

                                   compound  units_text  reported_result
0  CS(=O)(=O)c1cnc2ccc(-c3cc(Cl)c(O)c(Cl)c3)cc2c1Nc1cccc(CCN2CCCC2)c1 [Example 883, hydrochloride]          µM              100
1  COc1cc(-c2cc(F)c3ncc(C(=O)C4CC4)c(N[C@H]4CC[C@H](N)CC4)c3c2)cc(Cl)c1O          µM              1.8
2  CC(=O)c1cnc2ccc(-c3cc(F)c(O)c(Cl)c3)cc2c1N[C@H]1CC[C@H](NC(=O)CN(C)C)CC1          µM              1.5

State recorded IC50 for all listed compounds.
1. COc1cc(-c2ccc3ncc(C(=O)C4CC4)c(N[C@H]4CC[C@@H](CN(C)CC#N)CC4)c3c2)cc(Cl)c1O
2. COc1cc(-c2cc(F)c3ncc(C(=O)C4CC4)c(Nc4ccc(CN(C)C)cc4)c3c2)cc(Cl)c1O

[out]
[3.4, 6.9]

Each compound below has a recorded value; state its IC50.
1. N[C@H]1CC[C@H](Nc2c(C(=O)C3CC3)cnc3c(F)cc(-c4cc(F)c(O)c(Cl)c4)cc23)CC1
2. CCCC(=O)c1cnc2ccc(-c3cc(Cl)c(O)c(Cl)c3)cc2c1N[C@H]1CC[C@H](N)CC1

[out]
1. 10
2. 3.3

----------
measured on: MELK (Homo sapiens, UniProt Q14680)
Sequence (Q14680 whole entry, looked up): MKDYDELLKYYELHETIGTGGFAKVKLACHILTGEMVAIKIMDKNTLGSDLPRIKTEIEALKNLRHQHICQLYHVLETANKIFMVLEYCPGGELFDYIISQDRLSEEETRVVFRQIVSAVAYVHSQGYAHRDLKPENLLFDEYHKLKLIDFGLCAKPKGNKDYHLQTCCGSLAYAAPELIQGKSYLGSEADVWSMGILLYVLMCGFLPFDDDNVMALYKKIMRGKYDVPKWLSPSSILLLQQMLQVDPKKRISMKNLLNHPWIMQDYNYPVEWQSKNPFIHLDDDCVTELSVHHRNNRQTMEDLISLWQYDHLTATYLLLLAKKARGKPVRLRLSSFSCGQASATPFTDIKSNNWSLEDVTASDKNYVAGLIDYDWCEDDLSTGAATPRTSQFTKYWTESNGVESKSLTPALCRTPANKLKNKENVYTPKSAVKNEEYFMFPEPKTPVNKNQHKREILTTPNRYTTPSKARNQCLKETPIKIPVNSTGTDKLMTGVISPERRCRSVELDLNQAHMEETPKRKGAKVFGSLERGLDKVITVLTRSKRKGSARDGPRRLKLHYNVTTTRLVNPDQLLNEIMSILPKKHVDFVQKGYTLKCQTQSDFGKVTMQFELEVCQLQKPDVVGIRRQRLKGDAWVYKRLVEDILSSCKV
assay details: Kinase assay: MELK activity, phosphorylation of FITC-labeled histone H3 peptide measured by IMAP fluorescence polarization
Format: biochemical
condition description: 50 micro-M ATP, FITC-labeled histone H3 peptide substrate, IMAP fluorescence polarization; read-out: IC50 (μM) (kinase assay)
Where a name gives a salt, the structure may show the parent alone.
readout kind: IC50 (µM)
Answers are plain numbers, in µM.

Here is how some molecules turned out for IC50.
                                   molecule  readout_kind  units_text  reported_result
0  CC(C1CCN(c2c(C(=O)C3CC3)cnc3ccc(-c4cc(F)c(O)c(F)c4)cc23)CC1)N(C)C (stereo not shown) [Example 181]          IC50          µM            0.011
1  CC(C)CC(=O)c1cnc2ccc(-c3cc(Cl)c(O)c(Cl)c3)cc2c1N[C@H]1CC[C@H](N)CC1 [Example 267, dihydrochloride]          IC50          µM           0.0022
2  COc1cc(-c2ccc3ncc(C(=O)C4CC4)c(N4CCN(CCN5CCCC5)CC4)c3c2)cc(Cl)c1O [Example 394]          IC50          µM           0.0018

Give IC50 for each of the items listed below.
1. CC(=O)c1cnc2ccc(-c3cc(Cl)c(O)c(Cl)c3)cc2c1N[C@H]1CC[C@H](N)CC1 [Example 256]
2. COc1cc(-c2ccc3ncc(C(=O)C4CC4)c(N[C@H]4CC[C@H](N(C)C)CC4)c3c2)ccc1O [Example 266]
3. CCN(CC)C1CCC(Nc2c(C(=O)C3CCCC3)cnc3ccc(-c4ccc(O)c(Cl)c4)cc23)CC1 (stereo not shown) [Example 385]
4. COc1cc(-c2cc3c(N[C@H]4CC[C@H](N)CC4)c(C(=O)C4CC4)cnc3cc2F)cc(Cl)c1O [Example 284]

[out]
[0.0041, 0.0016, 0.019, 0.013]
